target: Dual specificity protein kinase CLK1 (Mus musculus); assay: Inhibition of GST-tagged mouse recombinant CLK1 expressed in Escherichia coli using GRSRSRSRSRSR as substrate
Sequence (P22518 whole entry): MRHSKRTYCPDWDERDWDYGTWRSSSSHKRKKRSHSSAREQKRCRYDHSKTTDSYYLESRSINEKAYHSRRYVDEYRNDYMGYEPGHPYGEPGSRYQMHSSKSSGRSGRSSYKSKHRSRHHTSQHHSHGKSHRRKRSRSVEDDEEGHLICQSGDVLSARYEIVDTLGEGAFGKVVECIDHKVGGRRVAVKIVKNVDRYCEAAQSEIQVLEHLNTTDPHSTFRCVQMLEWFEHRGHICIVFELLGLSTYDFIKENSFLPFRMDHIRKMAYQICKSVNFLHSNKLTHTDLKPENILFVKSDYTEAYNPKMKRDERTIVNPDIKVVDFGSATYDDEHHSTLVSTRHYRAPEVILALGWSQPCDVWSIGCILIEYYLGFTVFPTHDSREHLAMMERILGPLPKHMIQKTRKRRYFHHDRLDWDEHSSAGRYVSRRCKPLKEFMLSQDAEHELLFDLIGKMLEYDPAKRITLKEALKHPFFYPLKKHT
pIC50: −log10 of the molar value.
Quantity: pIC50

>  <Molecule>
CN1CCCC1c1c(O)cc(O)c2c(=O)cc(-c3ccccc3)oc12 (racemic)

>  <Tgt>
Dual specificity protein kinase CLK1 (Mus musculus)

>  <pIC50>
5.80

$$$$
>  <Molecule>
CCCCCC(NC)c1c(O)cc(O)c2c(=O)cc(-c3ccccc3)oc12 (racemic)

>  <Tgt>
Dual specificity protein kinase CLK1 (Mus musculus)

>  <pIC50>
< 5.00

$$$$

Turning now to a further record.
Provide the documented pIC50 with Dual specificity protein kinase CLK1 (Mus musculus) as the system for `CN1CCC[C@H]1c1c(O)cc(O)c2c(=O)cc(-c3ccccc3)oc12`
6.17

* * *

molecular target: Glycogen synthase kinase-3 (Sus scrofa, UniProt B2LUN4+I6LNT8); test: Inhibition of porcine brain GSK3alpha/beta using GS1 as substrate
Consider the following compounds and their measured IC50 readings.
Could you give me the number in µM? Just the number is fine.

>  <Compound>
CN1CC[C@H](c2c(O)cc(O)c3c(=O)cc(-c4ccccc4Cl)oc23)[C@H](O)C1 (single isomer, unassigned)

>  <Quantity>
IC50

>  <Value observed>
0.36

$$$$

As a next step, examine the compound that follows.
Query (compound): `CCCCC[C@@H](NC)c1c(O)cc(O)c2c(=O)cc(-c3ccccc3)oc12` ; field requested: IC50
4.1

* * *

target: Glycogen synthase kinase-3 (Sus scrofa, UniProt B2LUN4+I6LNT8); assay: Inhibition of porcine brain GSK3alpha/beta using GS1 as substrate
Quantity: IC50 (µM)
Express it in µM; write the number only.

Recorded results for 5 compounds are shown here.
>  <Compound>
CCCCCC(NC)c1c(O)cc(O)c2c(=O)cc(-c3ccccc3)oc12 (racemic)

>  <Unit text>
µM

>  <Value observed>
5.2

$$$$
>  <Compound>
CN1CCCC1c1c(O)cc(O)c2c(=O)cc(-c3ccccc3)oc12 (racemic)

>  <Unit text>
µM

>  <Value observed>
1.3

$$$$
>  <Compound>
CN1CCC[C@@H]1c1c(O)cc(O)c2c(=O)cc(-c3ccccc3)oc12

>  <Unit text>
µM

>  <Value observed>
2.6

$$$$
>  <Compound>
CN1CCC[C@H]1c1c(O)cc(O)c2c(=O)cc(-c3ccccc3)oc12

>  <Unit text>
µM

>  <Value observed>
0.72

$$$$
>  <Compound>
CN1CCCC[C@H]1c1c(O)cc(O)c2c(=O)cc(-c3ccccc3)oc12

>  <Unit text>
µM

>  <Value observed>
1.6

$$$$

Attention now turns to another entry.
Item CN1CCCCC1c1c(O)cc(O)c2c(=O)cc(-c3ccccc3)oc12 (racemic) has what recorded IC50?
5.1

* * *

molecular target: Cyclin-dependent kinase 5/CDK5 activator 1 (Homo sapiens, UniProt Q00535); assay: Inhibition of human recombinant CDK5/p25 using [gamma 33P]ATP after 30 mins by scintillation counting; type: protein-complex assay
Sequence (Q00535 whole entry): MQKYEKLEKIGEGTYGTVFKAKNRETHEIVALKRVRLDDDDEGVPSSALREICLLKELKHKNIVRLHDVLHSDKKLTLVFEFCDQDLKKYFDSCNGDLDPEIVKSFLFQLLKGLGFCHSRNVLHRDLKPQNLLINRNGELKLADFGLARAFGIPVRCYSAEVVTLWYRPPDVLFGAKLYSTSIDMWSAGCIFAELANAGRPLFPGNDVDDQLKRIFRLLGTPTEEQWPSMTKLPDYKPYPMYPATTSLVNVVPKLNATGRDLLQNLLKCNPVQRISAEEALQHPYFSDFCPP
Sequence (Q15078 whole entry, further chain): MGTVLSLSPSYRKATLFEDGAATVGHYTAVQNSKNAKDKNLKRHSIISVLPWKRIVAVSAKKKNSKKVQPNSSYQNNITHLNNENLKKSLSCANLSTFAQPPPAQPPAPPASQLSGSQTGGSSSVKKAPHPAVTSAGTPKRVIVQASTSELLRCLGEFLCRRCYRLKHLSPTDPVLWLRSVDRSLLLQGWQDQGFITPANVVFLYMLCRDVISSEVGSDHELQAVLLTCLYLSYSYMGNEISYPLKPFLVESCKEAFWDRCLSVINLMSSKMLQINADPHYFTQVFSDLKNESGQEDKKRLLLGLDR
Threshold check on IC50: strictly below 1000 nM is Criterion met; on or above 1000 nM is Criterion not met.

>  <Molecule>
CN1CCCC[C@@H]1c1c(O)cc(O)c2c(=O)cc(-c3ccccc3)oc12

>  <Tgt>
Cyclin-dependent kinase 5/CDK5 activator 1 (Homo sapiens, UniProt Q00535)

>  <Discrete label>
Criterion met

$$$$
>  <Molecule>
CCCCCC(NC)c1c(O)cc(O)c2c(=O)cc(-c3ccccc3)oc12 (racemic)

>  <Tgt>
Cyclin-dependent kinase 5/CDK5 activator 1 (Homo sapiens, UniProt Q00535)

>  <Discrete label>
Criterion met

$$$$
>  <Molecule>
O=c1cc(-c2ccccc2)oc2c(C3CCCN3)c(O)cc(O)c12 (racemic)

>  <Tgt>
Cyclin-dependent kinase 5/CDK5 activator 1 (Homo sapiens, UniProt Q00535)

>  <Discrete label>
Criterion not met

$$$$
>  <Molecule>
CCCCC[C@H](NC)c1c(O)cc(O)c2c(=O)cc(-c3ccccc3)oc12

>  <Tgt>
Cyclin-dependent kinase 5/CDK5 activator 1 (Homo sapiens, UniProt Q00535)

>  <Discrete label>
Criterion not met

$$$$
>  <Molecule>
CN1CCC[C@H]1c1c(O)cc(O)c2c(=O)cc(-c3ccccc3)oc12

>  <Tgt>
Cyclin-dependent kinase 5/CDK5 activator 1 (Homo sapiens, UniProt Q00535)

>  <Discrete label>
Criterion met

$$$$

Is IC50 strictly under 1000 nM for the entry `CN1CCC[C@@H]1c1c(O)cc(O)c2c(=O)cc(-c3ccccc3)oc12` ?
Criterion met

Same for COc1cc(O)c(C2CCCCN2C)c2oc(-c3ccccc3)cc(=O)c12 (configuration not stated) [BUCHENAVIANINE]
Criterion not met

Reference source for all entries: ChEMBL document CHEMBL2029219
